Experiment: Partition coefficient, log P of the compound
Type: physicochemical
Settings: octanol/water
Below, each of the molecules is paired with its reported logP value.
endpoint: logP

| molecule | endpoint | result |
| --- | --- | --- |
| COc1cc(Cc2n[nH]c(=S)n2-c2ccccc2)c(S(=O)(=O)N(C)C)cc1OC | logP | 1.72 |
| COc1cc(Cc2n[nH]c(=S)n2-c2ccc(Cl)cc2)c(S(=O)(=O)N2CCOCC2)cc1OC | logP | 2.25 |
| CCN(CC)S(=O)(=O)c1cc(OC)c(OC)cc1Cc1n[nH]c(=S)n1-c1ccc(Cl)cc1 | logP | 3.15 |
| COc1cc(Cc2n[nH]c(=S)n2-c2ccccc2)c(S(=O)(=O)N2CCCCC2)cc1OC | logP | 2.63 |
| CCN(CC)S(=O)(=O)c1cc(OC)c(OC)cc1Cc1n[nH]c(=S)n1-c1ccccc1 | logP | 2.48 |

These entries and their values trace back to ChEMBL document CHEMBL1143237.
